Test: PK of topical ocular sodium phosphate-based Gel Drop, concentrations 1 hour after last dose
Assay type: in vivo, Dutch-belted rabbits
Conditions: Dutch-belted, rabbit, plasma, 6 mg/ml, pH 5.9, 6 mg/ml pH 5.9 Phos 0.1% BAK 0.005% Gly 2% Polox 0.2% Osmo 257, 3x/day 4 days, read-out: [plasma]
Experimental Readout: concentration at 1 h (nM)
Numbers only here, please. The scale is nM.

Which concentration at 1 h value is on record for Cl.NC(=O)c1c(OCc2c(F)cc(Br)cc2F)nsc1NC(=O)NCCCCN1CCCC1 [Compound-I, hydrochloride] ?
8.43

====

Test: PK of topical ocular sodium phosphate-based Gel Drop, concentrations 1 hour after last dose
Format: in vivo, Dutch-belted rabbits
Conditions: Dutch-belted, rabbit, plasma, 4 mg/ml, pH 6, 4 mg/ml pH 6.0 Phos 2% BAK 0.005% Gly 2% PS80 1% Tylox 0.2%, 3x/day 5 days, read-out: [plasma]
Experimental Readout: concentration at 1 h (nM)
Express your answer in nM, writing the number without its unit.

Return reported concentration at 1 h; argument: Cl.NC(=O)c1c(OCc2c(F)cc(Br)cc2F)nsc1NC(=O)NCCCCN1CCCC1 [Compound-I, hydrochloride]
8.06

====

Experiment: PK of topical ocular sodium phosphate-based Gel Drop, concentrations 1 hour after last dose
Type: in vivo, Dutch-belted rabbits
Conditions: Dutch-belted, rabbit, AH (aqueous humor), 4 mg/ml, pH 6, 4 mg/ml pH 6.0 Phos 0.2% BAK 0.005% Gly 2%, 3x/day 5 days, read-out: Mean [AH]
Experimental Readout: concentration at 1 h (nM)
Numeric answer only, unit nM assumed.

What value of measured concentration at 1 h is listed for Cl.NC(=O)c1c(OCc2c(F)cc(Br)cc2F)nsc1NC(=O)NCCCCN1CCCC1 [Compound-I, hydrochloride] ?
25

====

Experiment: PK of topical ocular sodium phosphate-based Gel Drop, concentrations 1 hour after last dose
Format: in vivo, Dutch-belted rabbits
Settings: Dutch-belted, rabbit, plasma, 2 mg/ml, pH 6, 2 mg/ml pH 6 Phos 0.05% BAK 0.005% Gly 2% Osmo 244, 3x/day 5 days, read-out: [plasma]
Experimental Readout: concentration at 1 h (nM)
Kindly provide the numeric value in nM only, without the unit symbol.

Which concentration at 1 h reading was recorded for the compound Cl.NC(=O)c1c(OCc2c(F)cc(Br)cc2F)nsc1NC(=O)NCCCCN1CCCC1 [Compound-I, hydrochloride] ?
5.92

====

Assay: PK of topical ocular sodium phosphate-based Gel Drop, concentrations 1 hour after last dose
Assay type: in vivo, Dutch-belted rabbits
Conditions: Dutch-belted, rabbit, plasma, 2 mg/ml, pH 6.1, 2 mg/ml pH 6.1 Phos […] Osmo 34, 3x/day 4 days, read-out: [plasma]
Experimental Readout: concentration at 1 h (nM)
Field format: number, assumed nM, no unit text.

Consider the compound shown here: Cl.NC(=O)c1c(OCc2c(F)cc(Br)cc2F)nsc1NC(=O)NCCCCN1CCCC1 [Compound-I, hydrochloride] What is its recorded concentration at 1 h?
4.81

====

Test: PK of topical ocular sodium phosphate-based Gel Drop, concentrations 1 hour after last dose
Type: in vivo, Dutch-belted rabbits
Settings: Dutch-belted, rabbit, choroid, 1 mg/ml, pH 6, 1 mg/ml pH 6.0 Phos 0.2% BAK 0.005% Gly 2%, 3x/day 5 days, read-out: MEAN [choroid]
Experimental Readout: concentration at 1 h (nM)
Enter your answer as a number in nM; do not include the unit.

Which concentration at 1 h reading was recorded for the compound Cl.NC(=O)c1c(OCc2c(F)cc(Br)cc2F)nsc1NC(=O)NCCCCN1CCCC1 [Compound-I, hydrochloride] ?
519

====

Test: PK of topical ocular sodium phosphate-based Gel Drop, concentrations 1 hour after last dose
Format: in vivo, Dutch-belted rabbits
Settings: Dutch-belted, rabbit, choroid, 1 mg/ml, pH 6, 1 mg/ml pH 6.0 Phos 0.2% BAK 0.005% Gly 2% PS80 1% Tylox 0.2%, 3x/day 5 days, read-out: MEAN [choroid]
Experimental Readout: concentration at 1 h
Note to self: number, then unit, no commentary.

Requested read-out: concentration at 1 h. Entry: Cl.NC(=O)c1c(OCc2c(F)cc(Br)cc2F)nsc1NC(=O)NCCCCN1CCCC1 [Compound-I, hydrochloride]
423 nM

====

Assay: PK of topical ocular sodium phosphate-based Gel Drop, concentrations 1 hour after last dose
Type: in vivo, Dutch-belted rabbits
Settings: Dutch-belted, rabbit, choroid, 6 mg/ml, pH 5.9, 6 mg/ml pH 5.9 Phos 0.05% BAK 0.005% Gly 2% PS80 1% Tylox 0.1% Polox 0.2% Osmo 270, 3x/day 4 days, read-out: MEAN [choroid]
Experimental Readout: concentration at 1 h (nM)
API: value field is a number in nM; no unit string.

Could you share which concentration at 1 h value was measured for Cl.NC(=O)c1c(OCc2c(F)cc(Br)cc2F)nsc1NC(=O)NCCCCN1CCCC1 [Compound-I, hydrochloride] ?
22.4

====

Test: PK of topical ocular sodium phosphate-based Gel Drop, concentrations 1 hour after last dose
Format: in vivo, Dutch-belted rabbits
Conditions: Dutch-belted, rabbit, AH (aqueous humor), 2 mg/ml, pH 6, 2 mg/ml pH 6.0 Phos 0.2% BAK 0.005% Gly 2%, 3x/day 5 days, read-out: Mean [AH]
Experimental Readout: concentration at 1 h (nM)
Expressed in nM, but write only the number.

Looking for the measured concentration at 1 h of Cl.NC(=O)c1c(OCc2c(F)cc(Br)cc2F)nsc1NC(=O)NCCCCN1CCCC1 [Compound-I, hydrochloride] , can you help?
14.8

====

Assay: PK of topical ocular sodium phosphate-based Gel Drop, concentrations 1 hour after last dose
Format: in vivo, Dutch-belted rabbits
Details: Dutch-belted, rabbit, aqueous humor (AH), 2 mg/ml, pH 6, 2 mg/ml pH 6.0 Phos 0.1% BAK 0.005% Gly 2%, 3x/day 5 days, read-out: Mean [AH]
Experimental Readout: concentration at 1 h

May I ask what concentration at 1 h has been recorded for Cl.NC(=O)c1c(OCc2c(F)cc(Br)cc2F)nsc1NC(=O)NCCCCN1CCCC1 [Compound-I, hydrochloride] ?
18.9 nM

====

Experiment: PK of topical ocular sodium phosphate-based Gel Drop, concentrations 1 hour after last dose
Format: in vivo, Dutch-belted rabbits
Details: Dutch-belted, rabbit, choroid, 2 mg/ml, pH 6.1, 2 mg/ml pH 6.1 BAK 0.005% Gly 2% Osmo 229, 3x/day 5 days, read-out: MEAN [choroid]
Experimental Readout: concentration at 1 h (nM)
Give the quantity in nM, number only.

Name the reported concentration at 1 h value associated with the compound Cl.NC(=O)c1c(OCc2c(F)cc(Br)cc2F)nsc1NC(=O)NCCCCN1CCCC1 [Compound-I, hydrochloride]
462

====

Experiment: PK of topical ocular sodium phosphate-based Gel Drop, concentrations 1 hour after last dose
Format: in vivo, Dutch-belted rabbits
Details: Dutch-belted, rabbit, plasma, 2 mg/ml, pH 6, 2 mg/ml pH 6.0 Phos 0.05% BAK 0.005% Gly 2%, 3x/day 5 days, read-out: [plasma]
Source text: The Gel Drop of Compound-I was applied to eyes of Dutch-belted rabbits.
Experimental Readout: concentration at 1 h (nM)
Provide the reading as a plain figure in nM.

Quick check: concentration at 1 h of Cl.NC(=O)c1c(OCc2c(F)cc(Br)cc2F)nsc1NC(=O)NCCCCN1CCCC1 [Compound-I, hydrochloride] ?
5.79

====

Test: PK of topical ocular sodium phosphate-based Gel Drop, concentrations 1 hour after last dose
Type: in vivo, Dutch-belted rabbits
Details: Dutch-belted, rabbit, choroid, 6 mg/ml, pH 5.9, 6 mg/ml pH 5.9 Phos […] Osmo 80, 3x/day 4 days, read-out: MEAN [choroid]
Experimental Readout: concentration at 1 h (nM)
Supply the numeric figure in nM, leaving out any unit text.

What value of measured concentration at 1 h is listed for Cl.NC(=O)c1c(OCc2c(F)cc(Br)cc2F)nsc1NC(=O)NCCCCN1CCCC1 [Compound-I, hydrochloride] ?
823

====

Test: PK of topical ocular sodium phosphate-based Gel Drop, concentrations 1 hour after last dose
Type: in vivo, Dutch-belted rabbits
Settings: Dutch-belted, rabbit, plasma, 4 mg/ml, pH 6, 4 mg/ml pH 6.0 Phos 0.2% BAK 0.005% Gly 2%, 3x/day 5 days, read-out: [plasma]
Experimental Readout: concentration at 1 h (nM)
Entry rule: numbers only, all in nM.

Given the compound Cl.NC(=O)c1c(OCc2c(F)cc(Br)cc2F)nsc1NC(=O)NCCCCN1CCCC1 [Compound-I, hydrochloride] , what is its reported concentration at 1 h?
5.84

====

Test: PK of topical ocular sodium phosphate-based Gel Drop, concentrations 1 hour after last dose
Format: in vivo, Dutch-belted rabbits
Details: Dutch-belted, rabbit, aqueous humor (AH), 2 mg/ml, pH 6, 2 mg/ml pH 6 Phos 0.05% BAK 0.005% Gly 2% Osmo 244, 3x/day 5 days, read-out: Mean [AH]
Experimental Readout: concentration at 1 h (nM)
Write the number in nM without appending the unit.

Need concentration at 1 h, item Cl.NC(=O)c1c(OCc2c(F)cc(Br)cc2F)nsc1NC(=O)NCCCCN1CCCC1 [Compound-I, hydrochloride]
27.8
